- test system: Polyunsaturated fatty acid 5-lipoxygenase (Rattus norvegicus)
- test name: Inhibition of 5-lipoxygenase catalysis in rat basophilic leukemia (RBL) cells by measuring 5-HETE product formation
- Format: cell-based, RBL-1
result type: IC50 (µM)
Report the figure in µM without appending any unit label.

{"columns": ["compound", "result type", "test result"],
 "data": [
  ["O=C1NN(c2ccccc2)CCN1Cc1ccccc1", "IC50", 8.3],
  ["O=C1NCCN(c2cccc([N+](=O)[O-])c2)N1", "IC50", 49],
  ["O=C1NCCN(c2cccc(OCc3ccccc3)c2)N1", "IC50", 1.1]
]}

# input Would you kindly share the measured IC50 for O=C1NCCN(c2ccnc3cc(Cl)ccc23)N1 ?
# output 32

# input Report IC50 for O=C1NCCN(c2cccc(-c3ccsc3)c2)N1 please.
# output 4.9

# input Fill blank: measured IC50 of the compound O=C1NCCN(c2cccc(-c3cccs3)n2)N1 is ____.
# output 8.2

# input IC50 for O=C1NCCN(c2cc(F)cc(F)c2)N1 ?
# output 8.9

# input Query (compound): O=C1NCCN(c2cccc(-c3ccncc3)c2)N1 ; field requested: IC50
# output 30

----------
- test system: Polyunsaturated fatty acid 5-lipoxygenase (Rattus norvegicus)
- Sequence (P12527 whole entry): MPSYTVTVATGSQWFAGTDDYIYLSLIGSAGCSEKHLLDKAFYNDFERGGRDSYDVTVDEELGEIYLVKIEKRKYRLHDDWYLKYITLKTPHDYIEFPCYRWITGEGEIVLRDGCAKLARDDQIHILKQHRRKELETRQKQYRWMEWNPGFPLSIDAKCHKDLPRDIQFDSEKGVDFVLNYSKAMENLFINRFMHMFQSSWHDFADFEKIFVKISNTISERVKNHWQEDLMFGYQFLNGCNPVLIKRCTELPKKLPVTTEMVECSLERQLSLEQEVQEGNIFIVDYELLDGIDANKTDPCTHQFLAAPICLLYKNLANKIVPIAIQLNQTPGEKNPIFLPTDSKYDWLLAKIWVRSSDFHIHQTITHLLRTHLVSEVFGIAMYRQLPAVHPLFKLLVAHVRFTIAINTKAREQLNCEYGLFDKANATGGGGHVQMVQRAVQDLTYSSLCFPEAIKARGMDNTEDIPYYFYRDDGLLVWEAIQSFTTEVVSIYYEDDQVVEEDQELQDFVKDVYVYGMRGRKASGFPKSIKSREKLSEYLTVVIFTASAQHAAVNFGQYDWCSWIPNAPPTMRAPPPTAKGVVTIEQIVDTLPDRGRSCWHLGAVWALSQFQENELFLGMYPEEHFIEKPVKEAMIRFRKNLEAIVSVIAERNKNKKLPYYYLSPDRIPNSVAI
- test name: Inhibition of 5-lipoxygenase catalysis in rat basophilic leukemia (RBL) cells by measuring 5-HETE product formation
- Type: cell-based, RBL-1
pIC50: −log10 of the molar value.
Use 5 as the dividing line for pIC50, with the line itself on the class 1 side and lower values as class 0.

{"columns": ["compound", "category label"],
 "data": [
  ["Cc1cccc(N2CCNC(=O)N2)n1", "class 1"],
  ["O=C1NCCN(c2nc3ccccc3o2)N1", "class 0"],
  ["CCN1CCN(c2ccccc2)NC1=O", "class 0"],
  ["CCCCC1CN(c2ccccc2)NC(=O)N1 (centres undefined)", "class 1"]
]}

# input Quick check: does CC(C)C1CN(c2ccccc2)NC(=O)N1 (centres undefined) have pIC50 greater than or equal to 5?
# output class 1

# input # check: pIC50 of CC1CN(c2cccc(-c3ccco3)c2)NC(=O)N1 (centres undefined) is greater than or equal to 5
# output class 1

# input I'd appreciate it if you could say whether COCCOCC1CN(c2ccccc2)NC(=O)N1 (centres undefined) has pIC50 at least equal to 5.
# output class 0

# input Given CC1CN(c2cccc(Cl)n2)NC(=O)N1 (centres undefined) , state whether its pIC50 is at least 5.
# output class 1

# input Check this compound for pIC50 at or above 5: O=C1NCCN(c2cccc(-c3ccccn3)n2)N1
# output class 1

----------
Examples of compounds with documented IC50 follow.
- test system: Polyunsaturated fatty acid 5-lipoxygenase (Homo sapiens)
- Sequence (P09917 whole entry): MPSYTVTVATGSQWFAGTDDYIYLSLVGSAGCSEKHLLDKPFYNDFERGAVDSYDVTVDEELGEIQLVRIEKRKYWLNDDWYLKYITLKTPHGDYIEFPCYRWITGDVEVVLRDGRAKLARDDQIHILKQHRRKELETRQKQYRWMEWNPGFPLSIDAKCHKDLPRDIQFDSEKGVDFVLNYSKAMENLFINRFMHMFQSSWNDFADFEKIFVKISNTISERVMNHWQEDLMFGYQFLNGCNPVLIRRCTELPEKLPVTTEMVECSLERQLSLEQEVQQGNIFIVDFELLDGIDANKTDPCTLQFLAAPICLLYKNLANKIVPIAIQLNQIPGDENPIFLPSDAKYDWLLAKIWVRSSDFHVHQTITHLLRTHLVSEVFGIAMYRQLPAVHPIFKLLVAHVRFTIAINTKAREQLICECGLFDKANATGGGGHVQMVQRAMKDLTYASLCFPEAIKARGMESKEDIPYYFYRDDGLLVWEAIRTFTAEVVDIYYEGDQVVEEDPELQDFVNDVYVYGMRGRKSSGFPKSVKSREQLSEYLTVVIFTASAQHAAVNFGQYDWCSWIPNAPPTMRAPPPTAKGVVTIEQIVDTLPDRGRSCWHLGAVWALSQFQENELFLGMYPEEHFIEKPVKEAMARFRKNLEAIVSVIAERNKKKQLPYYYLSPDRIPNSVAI
- test name: In vitro 5-lipoxygenase inhibitory activity against calcium ionophore (A23187) induced LTB4 formation in human whole blood.
I only need the number, in µM, no unit after it.

Consider the worked cases shown below.
{"columns": ["compound", "result type", "test result"],
 "data": [
  ["Cc1cccc(N2CC(C)NC(=O)N2)n1 (stereo not given)", "IC50", 1.7],
  ["O=C1NCCN(c2ccccn2)N1", "IC50", 8.6],
  ["CC(C)C1CN(c2ccccc2)NC(=O)N1 (stereo not given)", "IC50", 20]
]}

Okay, next one:
# input Sample CC1CN(c2cccc(-c3cccs3)c2)NC(=O)N1 (stereo not given) — what was its IC50?
# output 5.5

----------
- test name: Plasma Cmax in rat (PO dose)
- Assay type: ADME, organism-based
- Parameters: route oral
Lab note - cut at 60 µM for Cmax: yes if strictly below, no if not.

{"columns": ["compound", "category label"],
 "data": [
  ["Cc1cccc(N2CC(C)NC(=O)N2)c1 (configuration not stated)", "yes"]
]}

# input Given CC1CN(c2cccc(Br)n2)NC(=O)N1 (configuration not stated) , is recorded Cmax strictly lower than 60 µM?
# output yes

# input State whether 60 µM exceeds Cmax recorded for O=C1NCCN(c2cccc(Br)n2)N1 .
# output no

----------
- Tested on: Rattus norvegicus
- test name: In vivo inhibition of rat anaphylaxis LTE4 leukotriene formation from peritoneal fluids, 1 hr after an oral dose of 200 uM/kg
- Type: functional
Inhibition vs 50%: less than gives true; not less than gives false.

{"columns": ["compound", "category label"],
 "data": [
  ["Cc1cccc(N2CC(C)NC(=O)N2)c1 (stereo not given)", "true"],
  ["CC1CN(c2cccc(Cl)c2)NC(=O)N1 (stereo not given)", "true"],
  ["CSc1cccc(N2CCNC(=O)N2)c1", "false"],
  ["CC1CN(c2cccc(Br)n2)NC(=O)N1 (stereo not given)", "false"],
  ["O=C1NCCN(c2cccc(Br)c2)N1", "true"],
  ["O=C1NCCN(c2cccc(C(F)(F)F)c2)N1", "true"],
  ["CC1CN(c2cccc(Br)c2)NC(=O)N1 (stereo not given)", "false"],
  ["O=C1NCCN(c2cc(F)cc(F)c2)N1", "false"]
]}

# input Strictly below 50% in Inhibition? CCCCC1CN(c2ccccc2)NC(=O)N1 (stereo not given)
# output true

# input Determine whether this compound shows Inhibition lower than 50% (ties excluded): O=C1NCCN(c2cccc(F)c2)N1
# output true

# input Determine whether this compound shows Inhibition lower than 50% (ties excluded): CC1CN(c2cccc(F)c2)NC(=O)N1 (stereo not given)
# output false

# input A record lists COc1cccc(N2CCNC(=O)N2)n1 . Is its Inhibition below 50%?
# output true

# input I wonder whether Cc1cc(C)cc(N2CCNC(=O)N2)c1 has Inhibition below 50%. Can you tell?
# output true

# input I wonder whether O=C1NCCN(c2cccc(OCc3ccccc3)c2)N1 has Inhibition below 50%. Can you tell?
# output true

# input Does COc1cccc(N2CCNC(=O)N2)c1 have Inhibition strictly under 50%?
# output true

----------
- test name: Cmax in rat (PO dose)
- Type: ADME, organism-based
- Design: route oral
- test parameters: in vivo
result type: Cmax (µM)
Reply numerically in µM, unit not repeated.

# input So what does the record say about Cmax for O=C1NCCN(c2ccccc2)N1 ?
# output 130
